The values you see were collected from patent EP4273147A1.

System: POAAN
Assay: Herbicidal pre-emergence action (Table A7)
Assay type: in vivo, Poa annua
Conditions: Poa annua, pre-emergence, 504 h; application rate 1280 g/ha; visual grading after ca. 3 weeks; read-out: pre-emergence activity against POAAN
Text: Seeds of mono- and dicotyledonous weed plants were sown in plastic pots (double sowings with one species of mono- and one species of dicotyledonous weed plants per pot), in sandy loam, and covered with soil.
property.name: pest or weed control at 1280 g/ha (%)
Give bare numbers, in %.

Consider the worked cases shown below.
O=C1N(Cc2ccsc2Br)CCCC12CCCN(Cc1ccsc1Br)C2=O (racemic) = 90
N#Cc1ccc(CN2CCCC3(CCCN(Cc4ccc(C#N)s4)C3=O)C2=O)s1 (single isomer, unassigned; (-)) = 100
Cc1cc(CN2CCCC3(CCCN(Cc4cc(C)no4)C3=O)C2=O)on1 (racemic) = 100

Provide pest or weed control at 1280 g/ha for all items below, preserving their order.
1. O=C1N(Cc2ccccc2)CCCC12CCCN(Cc1ccccc1F)C2=O (racemic)
2. O=C1N(Cc2cnc(Br)s2)CCCC12CCCN(Cc1cnc(Br)s1)C2=O (racemic)

100
100

* * *

Assign post-emergence activity against BRSNW to each entry below.
Test system: BRSNW
Assay: Post-emergence effects on crop plants (Table F5)
Assay type: in vivo, Brassica napus
Details: application rate 320 g/ha, crop plant BRSNW
Description: 2 to 3 weeks after sowing, the test plants were sprayed in the single-leaf stage.
Answers are plain numbers, in %.

Consider the worked cases shown below.
O=C1N(Cc2cccc(F)c2F)CCC12CCCN(Cc1c(F)cccc1F)C2=O (racemic) = 0
O=C1N(Cc2ccccc2)CCCC12CCCN(Cc1ccccc1F)C2=O (racemic) = 0
Cc1cccc(CN2CCCC3(CCCN(Cc4cccc(C)c4F)C3=O)C2=O)c1F (racemic) = 20
O=C1N(Cc2c(F)cccc2Cl)CCCC12CCCN(Cc1c(F)cccc1Cl)C2=O (racemic) = 10
O=C1N(Cc2ccccc2)CCCC12CCCN(Cc1ccccc1Cl)C2=O (racemic) = 0

Provide post-emergence activity against BRSNW for all items below, preserving their order.
1. O=C1N(Cc2c(F)ccc(F)c2F)CCCC12CCCN(Cc1c(F)ccc(F)c1F)C2=O (racemic)
2. CC(c1ccccc1F)N1CCCC2(CCCN(C(C)c3ccccc3F)C2=O)C1=O (centres unmarked)
3. COc1ccccc1CN1CCCC2(CCCN(Cc3ccccc3F)C2=O)C1=O (racemic)

1: 0; 2: 0; 3: 0

* * *

Tested on: BRSNW
Assay: Post-emergence effects on crop plants (Table F5)
Type: in vivo, Brassica napus
Conditions: application rate 320 g/ha, crop plant BRSNW
Assign post-emergence activity against BRSNW to each entry below.
Numbers only, in %.

Provide post-emergence activity against BRSNW for all items below, preserving their order.
1. O=C1N(Cc2ccc(F)cc2F)CCCC12CCCN(Cc1ccc(F)cc1F)C2=O (racemic) [I-021]
2. COc1ccccc1CN1CCCC2(CCCN(Cc3cccc(F)c3F)C2=O)C1=O (racemic) [I-052]

[0, 0]

Provide post-emergence activity against BRSNW for all items below, preserving their order.
1. Cc1ccccc1CN1CCCC2(CCCN(Cc3ccccc3F)C2=O)C1=O (racemic) [I-044]
2. O=C1N(Cc2cccc(F)c2F)CCCC12CCCN(Cc1cccc(F)c1F)C2=O (racemic) [I-012]

1: 0; 2: 20

* * *

Assign pre-emergence activity against ORYZA to each entry below.
System: ORYZA
Assay: Pre-emergence effects on crop plants (Table D3)
Conditions: crop plant; application rate 80 g/ha; visual grading after ca. 3 weeks
One number for each entry, in %.

Consider the worked cases shown below.
O=C1N(Cc2ccc(F)cc2F)CCCC12CCCN(Cc1ccc(F)cc1F)C2=O (racemic) = 10
O=C1N(Cc2ccccc2)CCCC12CCN(Cc1cccc(F)c1F)C2=O (racemic) = 20

Provide pre-emergence activity against ORYZA for all items below, preserving their order.
1. O=C1N(Cc2c(F)cccc2F)CCCC12CCN(Cc1c(F)cccc1F)C2=O (racemic)
2. O=C1N(Cc2ccc(Cl)s2)CCCC12CCCN(Cc1ccc(Cl)s1)C2=O (racemic)

1: 0; 2: 10

* * *

Assign pre-emergence activity against MATIN to each entry below.
Tested on: MATIN
Test: Herbicidal pre-emergence action, section C (Table C8)
Format: in vivo, Matricaria inodora
Conditions: application rate 320 g/ha; visual grading after ca. 3 weeks
Numbers only, in %.

O=C1N(Cc2cccc(F)c2F)CCCC12CCCN(Cc1c(F)cccc1F)C2=O (racemic) = 80
O=C1N(Cc2ccccc2F)CCCC12CCCN(Cc1ccccc1F)C2=O (single isomer, unassigned) [I-001] = 100

Provide pre-emergence activity against MATIN for all items below, preserving their order.
1. O=C1N(Cc2ccccc2F)CCCC12CCN(Cc1c(F)cccc1F)C2=O (racemic)
2. O=C1N(Cc2c(F)cccc2F)CCCC12CCCN(Cc1c(F)cccc1F)C2=O (racemic) [I-006]
3. O=C1N(Cc2ccccc2F)CCCC12CCCN(Cc1cccc(F)c1F)C2=O (racemic)
4. O=C1N(Cc2ccccc2)CCC12CCCN(Cc1cccc(F)c1F)C2=O (racemic)
5. O=C1N(Cc2c(F)cccc2F)CCCC12CCCN(Cc1c(F)cccc1F)C2=O (single isomer, unassigned; (+)) [I-083]
6. O=C1N(Cc2cccs2)CCCC12CCCN(Cc1c(F)cccc1F)C2=O (racemic)

[80, 80, 90, 80, 100, 80]

* * *

Test system: ZEAMX
Assay: Pre-emergence effects on crop plants (Table D1)
Type: in vivo, Zea mays
Details: crop plant; application rate 80 g/ha; visual grading after ca. 3 weeks
property.name: pre-emergence activity against ZEAMX (%)
One number for each entry, in %.

Provide pre-emergence activity against ZEAMX for all items below, preserving their order.
1. O=C1N(Cc2ccccc2)CCCC12CCCN(Cc1ccccc1Cl)C2=O (racemic)
2. O=C1N(Cc2ccccc2Cl)CCCC12CCN(Cc1cccc(F)c1F)C2=O (racemic)

10
0

Provide pre-emergence activity against ZEAMX for all items below, preserving their order.
1. Cc1cccc(CN2CCCC3(CCCN(Cc4cccc(C)c4F)C3=O)C2=O)c1F (racemic)
2. O=C1N(Cc2ccc(F)cc2F)CCCC12CCCN(Cc1ccc(F)cc1F)C2=O (racemic)
3. O=C1N(Cc2ccccc2F)CCCC12CCN(Cc1ccccc1F)C2=O (racemic)

1. 0
2. 0
3. 0

Provide pre-emergence activity against ZEAMX for all items below, preserving their order.
1. O=C1N(Cc2c(F)cccc2F)CCCC12CCN(Cc1c(F)cccc1F)C2=O (racemic)
2. O=C1N(Cc2ccccc2F)CCCC12CCN(Cc1c(F)cccc1F)C2=O (racemic)
3. O=C1N(Cc2ccccc2Br)CCCC12CCCN(Cc1c(F)cccc1F)C2=O (racemic)
4. O=C1N(Cc2cccc(F)c2F)CCCC12CCCN(Cc1cccc(F)c1F)C2=O (racemic)
5. O=C1N(Cc2ccccc2F)CCCC12CCN(Cc1cccc(F)c1F)C2=O (racemic)
6. O=C1N(Cc2cc(F)ccc2F)CCCC12CCCN(Cc1cc(F)ccc1F)C2=O (racemic)
7. CC(c1ccccc1F)N1CCCC2(CCCN(C(C)c3ccccc3F)C2=O)C1=O (stereo not drawn)

1: 0; 2: 0; 3: 0; 4: 20; 5: 0; 6: 10; 7: 0

Provide pre-emergence activity against ZEAMX for all items below, preserving their order.
1. COc1ccccc1CN1CCCC2(CCCN(Cc3cccc(F)c3F)C2=O)C1=O (racemic)
2. O=C1N(Cc2ccccc2F)CCCC12CCCN(Cc1cccc(F)c1F)C2=O (racemic)
3. O=C1N(Cc2cccc(F)c2F)CCC12CCCN(Cc1c(F)cccc1F)C2=O (racemic)
4. O=C1N(Cc2ccccc2)CCCC12CCN(Cc1cccc(F)c1F)C2=O (racemic)

[0, 10, 0, 0]

Provide pre-emergence activity against ZEAMX for all items below, preserving their order.
1. Cc1ccccc1CN1CCCC2(CCCN(Cc3ccccc3F)C2=O)C1=O (racemic)
2. COc1ccccc1CN1CCCC2(CCCN(Cc3ccccc3F)C2=O)C1=O (racemic)

1: 0; 2: 0

* * *

Test system: POAAN
Experiment: Herbicidal post-emergence action (Table B7)
Type: in vivo, Poa annua
Conditions: application rate 1280 g/ha
Assign post-emergence activity against POAAN to each entry below.

Consider the worked cases shown below.
O=C1N(Cc2ccccc2Br)CCCC12CCCN(Cc1ccccc1Br)C2=O (racemic) [I-064] = 100%
O=C1N(Cc2ccccc2)CCCC12CCN(Cc1ccccc1F)C2=O (racemic) [I-059] = 90%
Cc1nc(Cl)sc1CN1CCCC2(CCCN(Cc3sc(Cl)nc3C)C2=O)C1=O (racemic) [I-201] = 90%
O=C1N(Cc2ccccc2F)CCCC12CCN(Cc1cccc(F)c1F)C2=O (racemic) [I-016] = 90%
O=C1N(Cc2cccs2)CCCC12CCCN(Cc1ccccc1Cl)C2=O (centres unmarked) [I-062] = 90%
O=C1N(Cc2ccccc2F)CCCC12CCCN(Cc1ccccc1Cl)C2=O (racemic) [I-036] = 90%
Cc1ccccc1CN1CCCC2(CCCN(Cc3c(F)cccc3F)C2=O)C1=O (racemic) [I-051] = 90%

Proceeding to the next molecule to report its post-emergence activity against POAAN.
Suppose we examine the molecule COc1c(F)ccc(CN2CCCC3(CCCN(Cc4ccc(F)c(OC)c4F)C3=O)C2=O)c1F (racemic) [I-019] ; what post-emergence activity against POAAN value has been reported?
100%
